Provide the reported composite z-score of each item.
Assay: small-molecule microarray binders of probe aNog, primary screen, biochemical, biotinylated probe, 635/667 nm fluorescence (AID 1115);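 further: probe is biotinylated aNog protein used at 0.15 µg/mL for 1 h at 4 C; z-score combines 667 nm fluorescence of each spot with its signal to noise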
Conditions: higher = more signal

Query: Note composite z-score for the molecule shown: COCCOC(=O)N1C(=O)[C@@]2(c3cc(C#CC4=CCCCC4)ccc31)[C@H](c1ccc(O)cc1)N1[C@H](c3ccccc3)[C@H](c3ccccc3)OC(=O)[C@H]1[C@@H]2C(=O)N1CCN(c2ncccn2)CC1
Reply: -0.445

Query: Given CC(C)[Si](C#CCCCC#N)(O[C@H](c1ccccc1)c1cn([C@H](CO)Cc2ccccc2)nn1)C(C)C , respond with its composite z-score.
Reply: 0.0392

Query: Please look at this molecule and report its composite z-score: C[N+](C)(C)CCCCCCNC(=O)[C@H]1C[C@H]2C(=O)NCC(=O)N2[C@H]1c1ccc(O)cc1
Reply: -0.507

Query: Write down composite z-score measured for item CCOC(=O)C1=CC[C@@H](c2cccc(Cl)c2)N(S(=O)(=O)c2ccc(C)cc2)C1
Reply: 0.424

Query: State its composite z-score for this molecule: COc1ccc([Si](C)(C)[C@@H]2[C@@H](CCn3cc([C@H](O)c4ccccc4)nn3)O[C@]3(C(=O)N(Cc4ccc(N5CCC5=O)cc4)c4ccccc43)[C@H]2C)cc1
Reply: 0.318

Query: Please list composite z-score recorded for the molecule Cc1cc(C)c(C(O)C2C=CC3C(=O)N(c4ccccc4)C(=O)C3N2Nc2ccc(C(C)C)cc2)c(C)c1 (stereo not drawn)
Reply: 1.21

Query: Using the record for COc1ccc(C#Cc2ccc3c(c2)[C@]2(C(=O)N3)[C@H](c3ccc(O)cc3)N3[C@H](c4ccccc4)[C@H](c4ccccc4)OC(=O)[C@H]3[C@@H]2C(=O)O)cc1 , state its measured composite z-score.
Reply: 1.49

Query: Consider the molecule O=C(NCC(F)(F)F)[C@@H]1c2ccccc2C(=O)N(Cc2cc(F)cc(C(F)(F)F)c2)[C@H]1c1ccc(CO)cc1 and give its recorded composite z-score.
Reply: -0.074

Query: Tell me composite z-score reported for C=CCC(OC(C)=O)[C@@H]1[C@@H](N(Cc2cccc3ccccc23)C(=O)c2cccc3ccccc23)c2cc(OCCCO)ccc2N1C(=O)c1ccc(-c2ccccc2)cc1 (stereo partly drawn)
Reply: -0.215

Query: Given O=C1OCC=C[C@H]2OC34C=CCN(Cn5nnc6ccccc65)C(=O)[C@H]3N(CCCO)C(=O)[C@@H]4[C@@H]12 (stereo partly drawn) , respond with its composite z-score.
Reply: 0.0517

Query: Quickly give me recorded composite z-score for COC(=O)c1ccc([C@H](NC(=O)c2ccco2)[C@]2(C)C[C@H]2C2CCCCC2)cc1
Reply: 1.46

Query: Report measured composite z-score; entry is CN(C)C(=O)[C@@]1(CCS(=O)(=O)c2ccccc2)N=C(c2ccc(OCCCO)cc2)O[C@H]1c1ccccc1
Reply: 0.812

Query: Tell me measured composite z-score for CC(C)(C)OC(=O)CC[C@]1(C(=O)NCC(O)CO)N=C(c2ccc(OCCCO)cc2)O[C@H]1c1ccccc1 (stereo partly drawn) please.
Reply: 0.701

* * *

Record form. Attribute: z-score. Fill in for each entry.
Assay: A549 lung cancer cell viability effects, profiling panel, resazurin fluorescence, 24 h, PK04 Diversity Set (AID 1171); further: test concentration not given here
Conditions: higher = more signal, called active from +8 up or from −8 down
Respond with the number and no other words.

Query: Provide one value: measured z-score of COCCCNC(=O)[C@@]1(Sc2ccc(C)cc2)CC(=O)N(C2CCCCC2)[C@@H]1c1ccc(CO)cc1
Reply: 0.377

Query: Look up and state reported z-score for CCCCCCc1nc(C2CC2)cc2c1[Si](C(C)C)(C(C)C)O[C@H]2c1ccccc1
Reply: 0.254

Query: Specify measured z-score for C=CCC(OC(C)=O)[C@@H]1[C@@H](N(Cc2cc3ccccc3o2)C(=O)c2ccc(-c3ccccc3)cc2)c2cc(OCCCO)ccc2N1C(=O)c1ccc2ccccc2c1 (some centres undefined) .
Reply: 0.457

Query: In one line, give reported z-score of the entry CN(C)CCCNC(=O)[C@@]1(c2ccc([N+](=O)[O-])cc2)CC(=O)N(CC23CC4CC(CC(C4)C2)C3)[C@@H]1c1ccc(CO)cc1I .
Reply: -7.13
